System: Staphylococcus aureus (ATCC 29213)
Assay: microbe, parasite or virus in culture
Details: Tables 3 and 4
reported_metric: IC-50 (µg/mL)
State just the number; it will be interpreted in µg/mL.

In the examples that follow, each entry is paired with its recorded IC-50.
- substance: "Ac-RRWWRF-NH2 [RRWWRF, Ac-Arg-Arg-Trp-Trp-Arg-PheNH2]"
  IC-50, µg/mL: 5.5
- substance: "Ac-RRWWCW-NH2 [RRWWCW]"
  IC-50, µg/mL: 4.1
- substance: "Ac-FRWLLW-NH2 [FRWLLW]"
  IC-50, µg/mL: 14

Please report the recorded IC-50 for Ac-RRWWCK-NH2 [RRWWCK] .
5.5

Queued: Ac-RRWWCV-NH2 [RRWWCV]
4.9
